A collection of compounds and their measured Topical % Kill @ 5000 ng/insect
system: milkweed bug; test: Topical application, milkweed bug; type: in vivo, Oncopeltus fasciatus; conditions: MWB, 5000 ng/insect, 24 hours
reported.metric: Topical % Kill @ 5000 ng/insect (%)

[[record]]
compound = "Cc1c(COC(=O)[C@H]2[C@@H](C=C(Cl)C(F)(F)F)C2(C)C)cccc1-c1ccccn1 (relative stereo)"
assay_target = "milkweed bug"
reported_metric = "Topical % Kill @ 5000 ng/insect"
experimental_result = 100

[[record]]
compound = "CC1(C)[C@H](C=C(Cl)Cl)[C@@H]1C(=O)OCc1cccc(-c2ccsc2)c1 (relative stereo)"
assay_target = "milkweed bug"
reported_metric = "Topical % Kill @ 5000 ng/insect"
experimental_result = 95

[[record]]
compound = "Cc1c(COC(=O)[C@H]2[C@H](C=C(Cl)Cl)C2(C)C)cccc1-c1cccs1 (relative stereo)"
assay_target = "milkweed bug"
reported_metric = "Topical % Kill @ 5000 ng/insect"
experimental_result = 100

[[record]]
compound = "Cc1c(COC(=O)[C@H]2[C@@H](C=C(Cl)C(F)(F)F)C2(C)C)cccc1-c1ccco1 (relative stereo)"
assay_target = "milkweed bug"
reported_metric = "Topical % Kill @ 5000 ng/insect"
experimental_result = 100

[[record]]
compound = "Cc1c(COC(=O)[C@@H]2[C@H](C=C(Cl)Cl)C2(C)C)cccc1-c1cccs1"
assay_target = "milkweed bug"
reported_metric = "Topical % Kill @ 5000 ng/insect"
experimental_result = 100

[[record]]
compound = "Cc1c(COC(=O)[C@H]2[C@@H](C=C(Cl)C(F)(F)F)C2(C)C)cccc1-c1cccnc1 (relative stereo)"
assay_target = "milkweed bug"
reported_metric = "Topical % Kill @ 5000 ng/insect"
experimental_result = 100

[[record]]
compound = "Cc1c(COC(=O)[C@@H]2[C@H](C=C(Cl)Cl)C2(C)C)cccc1-c1cnccn1 (relative stereo)"
assay_target = "milkweed bug"
reported_metric = "Topical % Kill @ 5000 ng/insect"
experimental_result = 90

